experimental.system: Olfr73 S113A (Mus musculus, UniProt Q920P2, S113A)
Construct: Rho (rhodopsin) tag; expressed in transfected cells; host or cells: Hana 3A cells
Sequence (Q920P2 1-313 S113A): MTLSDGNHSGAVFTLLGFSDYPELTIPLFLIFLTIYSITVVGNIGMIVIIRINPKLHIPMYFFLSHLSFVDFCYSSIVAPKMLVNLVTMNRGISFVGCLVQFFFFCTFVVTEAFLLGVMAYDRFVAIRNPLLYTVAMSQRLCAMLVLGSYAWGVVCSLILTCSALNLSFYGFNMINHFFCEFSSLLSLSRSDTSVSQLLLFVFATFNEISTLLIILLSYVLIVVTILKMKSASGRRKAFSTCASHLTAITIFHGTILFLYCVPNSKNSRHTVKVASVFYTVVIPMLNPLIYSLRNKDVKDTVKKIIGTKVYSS
test.name: cAMP reporter gene (SEAP) assay, Olfr73 S113A in Hana3A cells
Type: cell-based
particulars: EC50 Olfr73 S113A, dash in Table 1 = no measurable response

>  <substance.smiles>
CCC=CCC1=C(C)CCC1=O

>  <EC50>
> 100 µM

$$$$
